assay_comment: Quantitative High-Throughput drug screen in 47 multiple myeloma cell lines against the NCATS MIPE library collection: NCIH929_DSMZ cell viability assay (AID 1918978); further: nearly all actives have a fitted effect of over 35% in size
measurement_context: NCI-H929 myeloma viability, CellTiter-Glo ATP, 48 h; series mostly up to 45.8 µM
Inconclusive results are not listed. Activity calls are given as the source filed them. The call rests on the fitted dose curve; in most records, active means well fitted cell-killing curve with a large enough effect; inconclusive means small, poorly fitted or top-dose-only effect; inactive means no such curve, though single readings can be large or run the other way.
Your reply should match one of these outcome classes. yes (1) for active, no (0) for inactive

Worked set:
compound: CC(NC(C)(C)C)C(=O)c1cccc(Cl)c1 (stereo not given)
class: no (0)
--
compound: CC(C)c1cccc(C(C)C)c1O
class: no (0)
--
compound: C[C@](O)(CS(=O)(=O)c1ccc(F)cc1)C(=O)Nc1ccc(C#N)c(C(F)(F)F)c1
class: yes (1)
--
compound: CN1C(=O)CCS(=O)(=O)C1c1ccc(Cl)cc1 (stereo not given)
class: yes (1)

Next item in the queue.
Assay result, entry CN1C(=O)COc2c(C(=O)NC3CN4CCC3CC4)cc(Cl)cc21 (stereo not given) — outcome?
no (0)

====

assay_comment: qHTS of pediatric cancer cell lines to identify multiple opportunities for drug repurposing: Primary screen for SJ-GBM2 cells (AID 1347091)
measurement_context: SJ-GBM2 viability, CellTiter-Glo luminescence, 48 h; series mostly up to 46 µM
Experimental: Drug repurposing or repositioning has been offered as a strategy for drug development in oncology programs. […] [1] Shen, M et al. Quantitative high-throughput phenotypic screening of pediatric cancer cell lines identifies multiple opportunities for drug repurposing. […] Cells were assayed in growth media at a density of 500-1,000 cells/well. […] After a 15 min incubation at room temperature, samples were analyzed for luminescence intensity using a ViewLux High-throughput CCD imager equipped with clear filters.
Results filed as inconclusive are left out. Calls of active or inactive are those of the source. Calls come from the whole dose curve; as a rule, active = well fitted cell-killing curve with a large enough effect; inconclusive = small, poorly fitted or top-dose-only effect; inactive = no such curve, though single readings can be large or run the other way.
Your reply should match one of these outcome classes. 1 = active, -1 = inactive

compound: COc1ccc2c(c1OC)C(=O)O[C@H]2[C@@H]1c2cc3c(cc2CCN1C)OCO3
class: -1

Assay result, entry C=CCC1(C(C)CC)C(=O)NC(=O)NC1=O (configuration not stated) — outcome?
-1

Assay result, entry CC(C)c1cccc(C(C)C)c1O — outcome?
-1

Assay result, entry CC(C)=CC1C(C(=O)OCN2C(=O)C3=C(CCCC3)C2=O)C1(C)C (configuration not stated) — outcome?
1

Assay result, entry COc1cccc([C@@]2(O)CCCC[C@@H]2CN(C)C)c1 — outcome?
-1

Assay result, entry NNc1ccccc1 — outcome?
-1

Assay result, entry CC(NC(C)(C)C)C(=O)c1cccc(Cl)c1 (configuration not stated) — outcome?
-1

====

assay_comment: qHTS for Inhibitors of the Functional Ribonucleoprotein Complex (vRNP) of Lassa (LASV) Arenavirus: Viability assay - alamar blue signal for LASV Primary Screen (AID 1347083); further: on the % scale 0 is the no-effect control and ±100 the full control effect; nearly all actives have a fitted effect of over 80% in size
measurement_context: cell viability, alamar blue fluorescence (LASV minigenome counter-screen); series mostly up to 57.5 µM
Results filed as inconclusive are left out. Calls of active or inactive are those of the source. The call rests on the fitted dose curve; tested in HEK293 reporter line.
measure: activity change, negative = reduced viability

Examples with answers:
compound: O=S(=O)(O)c1cc(I)c(O)c2ncccc12
readout_value: inactive
--
compound: CCN[C@H](C)Cc1cccc(C(F)(F)F)c1
readout_value: inactive
--
compound: O=C(C1CCCCC1)N1CC(=O)N2CCCc3ccccc3C2C1 (configuration not stated)
readout_value: inactive
--
compound: Cc1ccc(C(C)C)c(O)c1
readout_value: inactive
--
compound: CCn1cc(C(=O)O)c(=O)c2cnc(N3CCCC3)nc21
readout_value: 9.34% [at 11.5 µM] (inactive)
--
compound: NCCNCCNCCNCCN
readout_value: 1.27% [at 11.5 µM] (inactive)

# activity change, negative = reduced viability lookup, item C[N+]1(C)CCCC(OC(=O)C(O)(c2ccccc2)c2ccccc2)C1 (configuration not stated)
inactive

# activity change, negative = reduced viability lookup, item Cc1cc(CC(=O)O)c(C)n1-c1ccc(Cl)cc1
inactive
